Target: Peroxisome proliferator-activated receptor delta (Homo sapiens)
Sequence (Q03181 whole entry): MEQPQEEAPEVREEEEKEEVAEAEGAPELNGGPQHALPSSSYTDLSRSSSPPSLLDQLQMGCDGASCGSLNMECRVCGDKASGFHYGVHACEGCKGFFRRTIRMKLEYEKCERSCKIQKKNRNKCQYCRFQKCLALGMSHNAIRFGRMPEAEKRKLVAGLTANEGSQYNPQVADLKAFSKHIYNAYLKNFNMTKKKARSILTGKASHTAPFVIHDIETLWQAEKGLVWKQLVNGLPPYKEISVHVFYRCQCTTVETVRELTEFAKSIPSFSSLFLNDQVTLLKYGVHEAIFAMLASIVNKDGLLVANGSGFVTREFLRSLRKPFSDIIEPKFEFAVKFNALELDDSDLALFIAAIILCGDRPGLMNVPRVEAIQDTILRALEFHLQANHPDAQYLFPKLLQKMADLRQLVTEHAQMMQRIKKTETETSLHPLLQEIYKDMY
Assay: Transactivation activity at human PPARdelta expressed in african green monkey CV1 cells after 24 hrs by luciferase reporter gene assay
Format: cell-based, CV-1
Items are presented alongside their recorded EC50.
Answer in nM, number only, no unit symbol.

Past entries and their recorded results:
Cc1cc(SC(Cc2ccccc2)c2sc(-c3ccc(C(F)(F)F)cc3)nc2C)ccc1OCC(=O)O (configuration not stated); 1.6
COc1ccc(CC(Sc2ccc(OCC(=O)O)c(C)c2)c2sc(-c3ccc(C(F)(F)F)cc3)nc2C)cc1 (configuration not stated); 4.8
Cc1cc(SC(Cc2ccc(F)cc2F)c2sc(-c3ccc(C(F)(F)F)cc3)nc2C)ccc1OCC(=O)O (configuration not stated); 4.6
Cc1cc(SC(Cc2c(F)cccc2Cl)c2sc(-c3ccc(C(F)(F)F)cc3)nc2C)ccc1OCC(=O)O (configuration not stated); 1.2
Cc1cc(SC(Cc2ccc(-c3ccccc3)cc2)c2sc(-c3ccc(C(F)(F)F)cc3)nc2C)ccc1OCC(=O)O (configuration not stated); 4.4

Can you look up the measured EC50 of Cc1cc(SC(CCc2ccccc2)c2sc(-c3ccc(C(F)(F)F)cc3)nc2C)ccc1OCC(=O)O (configuration not stated) for me?
2.6

Please answer likewise for Cc1cc(SC(Cc2cc(F)c(F)c(F)c2)c2sc(-c3ccc(C(F)(F)F)cc3)nc2C)ccc1OCC(=O)O (configuration not stated)
6.7
